test: Half-life in male Sprague-Dawley rat at 2 mg/kg, iv measured after 24 hrs by LC-MS/MS analysis; type: ADME, organism-based; details: in vivo
observed property: half-life (h)
API: value field is a number in h; no unit string.

# half-life lookup, item Cc1cc(-n2ncc(CN3C[C@@H](c4ccc5c(c4C)COC5=O)N[C@@H](C)C3)n2)ncc1C#N 4.8

----------
Target: Solute carrier family 22 member 6 (Homo sapiens, UniProt Q4U2R8)
Sequence (Q4U2R8 whole entry): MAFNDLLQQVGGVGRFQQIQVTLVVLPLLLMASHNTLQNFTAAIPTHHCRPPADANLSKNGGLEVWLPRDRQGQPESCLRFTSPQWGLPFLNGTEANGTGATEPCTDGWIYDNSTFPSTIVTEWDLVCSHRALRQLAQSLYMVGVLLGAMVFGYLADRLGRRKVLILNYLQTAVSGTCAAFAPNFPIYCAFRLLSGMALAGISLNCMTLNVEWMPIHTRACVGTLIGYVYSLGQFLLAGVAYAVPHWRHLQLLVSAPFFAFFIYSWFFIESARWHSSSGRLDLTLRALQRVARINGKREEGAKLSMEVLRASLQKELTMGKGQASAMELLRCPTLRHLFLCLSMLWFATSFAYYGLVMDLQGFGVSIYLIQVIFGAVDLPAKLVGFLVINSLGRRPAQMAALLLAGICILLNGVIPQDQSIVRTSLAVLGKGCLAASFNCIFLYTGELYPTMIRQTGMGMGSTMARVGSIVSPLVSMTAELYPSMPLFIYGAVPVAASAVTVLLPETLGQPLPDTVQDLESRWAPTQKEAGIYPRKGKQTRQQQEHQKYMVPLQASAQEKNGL
observed property: IC50

Which IC50 value is on record for Cc1cc(-n2ncc(CN3C[C@@H](c4ccc5c(c4C)COC5=O)N[C@@H](C)C3)n2)ncc1C#N ? > 18 µM

----------
These molecules were tested on ATP-sensitive inward rectifier potassium channel 1 (Homo sapiens); IC50 is the recorded read-out.
Sequence (P48048 whole entry): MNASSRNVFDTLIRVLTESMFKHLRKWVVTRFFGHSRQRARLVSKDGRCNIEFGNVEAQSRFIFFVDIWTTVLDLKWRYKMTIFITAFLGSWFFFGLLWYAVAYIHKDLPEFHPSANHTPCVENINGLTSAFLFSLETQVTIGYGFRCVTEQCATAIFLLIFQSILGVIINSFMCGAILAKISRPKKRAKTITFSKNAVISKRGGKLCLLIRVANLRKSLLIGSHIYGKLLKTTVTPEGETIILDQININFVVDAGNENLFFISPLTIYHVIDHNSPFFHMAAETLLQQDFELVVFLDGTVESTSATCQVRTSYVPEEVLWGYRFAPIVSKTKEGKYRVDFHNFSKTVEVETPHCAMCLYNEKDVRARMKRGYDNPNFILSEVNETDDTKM
Numeric answer only, unit nM assumed.

So what's the measured IC50 for this one? Cc1c([C@@H](O)CN2CCc3nc(-c4ccc(C#N)c(F)c4)ncc3C2)ccc2c1COC2=O 8.8

What does the record list as IC50 for Cc1cc(-n2ccc(CNC[C@H](O)c3ccc4c(c3C)COC4=O)n2)ncc1C#N ? 430

So what's the measured IC50 for this one? Cc1cc(-n2ncc(CNC[C@H](O)c3ccc4c(c3C)COC4=O)n2)ncc1C#N 52

Give the measured IC50 of N#Cc1ccc(-c2ccc3c(c2)CCN(CCc2ccc4c(c2)COC4=O)C3)cc1F . 59

----------
experiment: Metabolic stability in rat liver microsomes assessed as parent compound remaining at 10 uM measured after 10 mins in presence of NADPH and GSH by UPLC-MS/MS analysis; format: ADME, Microsome; conditions: read-out: Stability
Known remaining at 10 min, 10 µM of a selection of compounds
Express it in %; write the number only.

Some compounds with known remaining at 10 min, 10 µM results, for comparison:
compound	measured
Cc1cc(-n2ncc(CN3C[C@@H](c4ccc5c(c4C)COC5=O)NC(C)(C)C3)n2)ncc1C#N	100
Cc1cc(-n2cc(CN3CCNC(c4ccc5c(c4C)COC5=O)C3C)cn2)ncc1C#N (stereo not given)	62

Please look up its remaining at 10 min, 10 µM: Cc1cc(-n2cc(CN3CC[C@@H](O)[C@H](c4ccc5c(c4C)COC5=O)C3)cn2)ncc1C#N 75

Request the reported remaining at 10 min, 10 µM associated with Cc1cc(-n2cnc(CNC[C@H](O)c3ccc4c(c3C)COC4=O)c2)ncc1C#N 67

Request the reported remaining at 10 min, 10 µM associated with Cc1cc(-c2ccc(CNC[C@H](O)c3ccc4c(c3C)COC4=O)cn2)ncc1C#N 46

----------
experiment: Half-life in mouse at 2 mg/kg, iv; type: ADME, organism-based; conditions: in vivo
observed property: half-life

Name the recorded half-life for Cc1cc(-n2ncc(CN3C[C@@H](c4ccc5c(c4C)COC5=O)N[C@@H](C)C3)n2)ncc1C#N . 2.8 h

----------
assay: Solubility of compound at pH 7.4; assay type: physicochemical; conditions: buffer
observed property: solubility (µg/mL)
Quick note: give the figure in µg/mL, leave out the unit.

Returns the measured solubility for the input compound. Input: Cc1cc(-n2ncc(CN3C[C@@H](c4ccc5c(c4C)COC5=O)N[C@@H](C)C3)n2)ncc1C#N 30

----------
assay: Oral bioavailability in dog at 5 mg/kg; format: ADME, organism-based, Canis lupus familiaris; conditions: in vivo
observed property: bioavailability (%)
Respond with the bare value in %.

Param item = Cc1cc(-n2ncc(CN3C[C@@H](c4ccc5c(c4C)COC5=O)N[C@@H](C)C3)n2)ncc1C#N ; retrieve measured bioavailability. 48

----------
test: Glutathione reactivity in human liver microsomes assessed as GSH-adduct formation at 10 uM incubated for 60 mins in presence of NADPH and GSH by HPLC-MS analysis; assay type: ADME, Microsome; conditions: 1 h
observed property: Activity

Use these answered entries as a reference point.
molecule	Activity
Cc1cc(-n2cc(CN3CC[C@@H](O)[C@H](c4ccc5c(c4C)COC5=O)C3)cn2)ncc1C#N	Not Active
Cc1cc(-n2cc(CN3CC(O)CC(c4ccc5c(c4C)COC5=O)C3)cn2)ncc1C#N (stereo unspecified)	Active
Cc1cc(-n2ncc(CN3C[C@@H](c4ccc5c(c4C)COC5=O)N[C@@H](C)C3)n2)ncc1C#N	Not Active
Cc1cc(-n2cc(CN3CC(c4ccc5c(c4C)COC5=O)NCC3C)cn2)ncc1C#N (stereo unspecified)	Active
Cc1cc(-n2cc(CN3CCNC(c4ccc5c(c4C)COC5=O)C3C)cn2)ncc1C#N (stereo unspecified)	Active

Then there is this molecule:
Can you look up the measured Activity of Cc1cc(-n2cc(CN3C[C@H](CO)N[C@H](c4ccc5c(c4C)COC5=O)C3)cn2)ncc1C#N for me? Not Active

----------
assay: Volume of distribution at steady state in mouse at 2 mg/kg, iv; type: ADME, organism-based; conditions: in vivo, read-out: Vdss
observed property: Vd (L/kg)
Respond with the bare value in L/kg.

Need Vd, item Cc1cc(-n2ncc(CN3C[C@@H](c4ccc5c(c4C)COC5=O)N[C@@H](C)C3)n2)ncc1C#N 2.6

----------
assay: Tmax in mouse at 2 mg/kg, po; format: ADME, organism-based; conditions: in vivo
observed property: Tmax (min)
Value expressed in min; do not type the unit.

Look up Tmax for this compound: Cc1cc(-n2ncc(CN3C[C@@H](c4ccc5c(c4C)COC5=O)N[C@@H](C)C3)n2)ncc1C#N 15

----------
assay: Cmax in Cynomolgus monkey at 5 mg/kg, po; format: ADME, organism-based, Macaca fascicularis; details: in vivo
observed property: Cmax (nM)
Provide the reading as a plain figure in nM.

Return reported Cmax; argument: Cc1cc(-n2ncc(CN3C[C@@H](c4ccc5c(c4C)COC5=O)N[C@@H](C)C3)n2)ncc1C#N 1000

----------
Items are presented alongside their recorded inhibition at 1 µM.
target: UniProtKB Q12809; experiment: Inhibition of human ERG expressed in HEK293 cells at 1 uM incubated for 2 to 5 mins by Manual patch clamp assay relative to control; format: toxicity, cell-based; conditions: HEK293 cells expressing hERG, time 2-5 min
Sequence (Q12809 whole entry): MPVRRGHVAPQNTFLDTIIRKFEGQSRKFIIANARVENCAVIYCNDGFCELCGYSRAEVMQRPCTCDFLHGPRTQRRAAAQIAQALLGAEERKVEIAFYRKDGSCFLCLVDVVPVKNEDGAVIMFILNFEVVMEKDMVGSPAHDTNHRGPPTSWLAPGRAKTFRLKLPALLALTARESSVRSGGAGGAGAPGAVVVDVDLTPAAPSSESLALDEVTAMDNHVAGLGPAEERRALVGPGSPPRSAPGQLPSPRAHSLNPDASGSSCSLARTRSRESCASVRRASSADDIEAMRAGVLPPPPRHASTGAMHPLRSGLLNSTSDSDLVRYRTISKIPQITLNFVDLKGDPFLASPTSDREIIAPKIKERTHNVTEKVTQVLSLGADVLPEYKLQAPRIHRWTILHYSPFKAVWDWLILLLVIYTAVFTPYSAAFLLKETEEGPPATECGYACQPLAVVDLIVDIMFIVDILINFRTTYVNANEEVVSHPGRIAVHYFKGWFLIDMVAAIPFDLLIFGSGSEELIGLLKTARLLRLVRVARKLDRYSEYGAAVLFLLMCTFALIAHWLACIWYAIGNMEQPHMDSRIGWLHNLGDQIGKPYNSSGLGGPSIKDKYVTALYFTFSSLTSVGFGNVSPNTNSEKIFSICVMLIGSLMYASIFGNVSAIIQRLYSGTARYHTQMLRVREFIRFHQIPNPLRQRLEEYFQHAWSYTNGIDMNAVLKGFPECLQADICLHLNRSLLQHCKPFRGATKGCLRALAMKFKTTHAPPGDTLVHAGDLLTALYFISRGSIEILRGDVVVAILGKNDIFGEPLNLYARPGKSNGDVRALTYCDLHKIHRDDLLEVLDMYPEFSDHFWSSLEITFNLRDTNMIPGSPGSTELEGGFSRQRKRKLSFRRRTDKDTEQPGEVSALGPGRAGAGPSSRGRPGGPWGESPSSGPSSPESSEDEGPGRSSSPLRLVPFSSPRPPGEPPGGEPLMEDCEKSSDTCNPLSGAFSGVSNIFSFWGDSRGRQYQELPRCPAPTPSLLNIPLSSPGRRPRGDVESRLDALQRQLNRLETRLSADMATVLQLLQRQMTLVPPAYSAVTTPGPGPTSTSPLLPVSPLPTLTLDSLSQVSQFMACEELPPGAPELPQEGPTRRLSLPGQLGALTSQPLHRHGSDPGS
Provide a numeric answer, followed by its unit.

Solved cases below.
compound	inhibition at 1 µM
COc1c(CNC[C@H](O)c2ccc3c(c2C)COC3=O)cnn1-c1cc(C)c(C#N)cn1	91%
Cc1cc(-n2cc(CN3CCO[C@H](c4ccc5c(c4C)COC5=O)C3)cn2)ncc1C#N	26%

// lookup inhibition at 1 µM for N#Cc1ccc(-c2ncc3c(n2)CCN(C[C@H](O)c2ccc4c(c2)COC4=O)C3)cc1F 50%

----------
test: Volume of distribution at steady state in male Sprague-Dawley rat at 2 mg/kg, iv measured after 24 hrs by LC-MS/MS analysis; type: ADME, organism-based; conditions: in vivo, read-out: Vdss
observed property: Vd (L/kg)
Please reply with the bare figure in L/kg and do not write the unit itself.

Need Vd, item Cc1cc(-n2ncc(CN3C[C@@H](c4ccc5c(c4C)COC5=O)N[C@@H](C)C3)n2)ncc1C#N 2.8

----------
biological target: UniProt:O75469; assay: Activation of PXR (unknown origin)
Sequence (O75469 whole entry): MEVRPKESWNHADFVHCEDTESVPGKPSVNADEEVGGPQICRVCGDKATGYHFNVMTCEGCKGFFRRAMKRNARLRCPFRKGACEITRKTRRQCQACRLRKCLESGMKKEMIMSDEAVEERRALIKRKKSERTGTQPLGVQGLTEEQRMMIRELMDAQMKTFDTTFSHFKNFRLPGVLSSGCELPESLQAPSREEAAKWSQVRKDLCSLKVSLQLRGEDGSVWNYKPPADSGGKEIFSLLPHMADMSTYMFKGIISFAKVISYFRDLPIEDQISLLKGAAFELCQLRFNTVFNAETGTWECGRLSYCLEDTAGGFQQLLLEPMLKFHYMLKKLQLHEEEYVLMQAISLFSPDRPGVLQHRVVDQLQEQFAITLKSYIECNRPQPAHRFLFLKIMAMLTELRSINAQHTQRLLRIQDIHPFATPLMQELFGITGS
pEC50: −log10 of the molar value.
observed property: pEC50

I am curious: what pEC50 value has been reported for Cc1cc(-n2ncc(CN3C[C@@H](c4ccc5c(c4C)COC5=O)N[C@@H](C)C3)n2)ncc1C#N ? < 4.30

----------
Target: UniProtKB O60928
Sequence (O60928 whole entry): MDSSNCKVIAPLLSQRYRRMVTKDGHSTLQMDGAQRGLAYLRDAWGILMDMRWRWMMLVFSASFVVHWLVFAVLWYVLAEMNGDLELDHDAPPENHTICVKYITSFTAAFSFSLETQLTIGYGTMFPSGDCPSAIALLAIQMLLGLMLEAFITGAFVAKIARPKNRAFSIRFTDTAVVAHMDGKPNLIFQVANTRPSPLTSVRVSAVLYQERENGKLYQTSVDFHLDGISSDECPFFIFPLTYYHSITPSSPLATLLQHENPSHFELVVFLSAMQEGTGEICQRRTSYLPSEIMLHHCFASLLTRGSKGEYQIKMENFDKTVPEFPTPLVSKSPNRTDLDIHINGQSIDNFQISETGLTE
pIC50: −log10 of the molar value.
observed property: pIC50

Which pIC50 reading was recorded for the molecule Cc1cc(-n2ncc(CN3C[C@@H](c4ccc5c(c4C)COC5=O)N[C@@H](C)C3)n2)ncc1C#N ? < 5.00

All figures here come from ChEMBL document CHEMBL5512682.
